Assay: Beagle dog pharmacokinetics
Type: in vivo
Conditions: male, plasma, po, ig
property: Cmax (ng/mL)
# unit: ng/mL | format: bare number

[[record]]
input_smiles = "CCC(=O)c1ccc(Cl)cc1-c1cc(=O)n([C@@H](Cc2ccccc2)C(=O)Nc2ccc(C(=O)O)cc2)nc1OC"
number = 1600


# Cmax lookup, item COc1nn([C@@H](Cc2ccccc2)C(=O)Nc2ccc(C(=O)O)cc2)c(=O)cc1-c1cc(Cl)ccc1C(C)=O 2320

====

Assay: Rat pharmacokinetics
Type: in vivo, SD rats
Parameters: concentration or dose not given beside the values
Details: male, SD, plasma, iv
The following compounds are shown together with reported AUC values.
# unit: ng·h/mL | format: bare number

Example results:
[[record]]
input_smiles = "COCCOc1nn([C@@H](Cc2ccccc2)C(=O)Nc2ccc(C(=O)O)cc2)c(=O)cc1-c1cc(Cl)ccc1C(C)=O"
property = "AUC"
number = 743

[[record]]
input_smiles = "CC(=O)c1ccc(Cl)cc1-c1cc(=O)n([C@@H](Cc2ccccc2)C(=O)Nc2ccc(C(=O)O)cc2)nc1OCCO"
property = "AUC"
number = 604

[[record]]
input_smiles = "CCC(=O)c1ccc(Cl)cc1-c1cc(=O)n([C@@H](Cc2ccccc2)C(=O)Nc2ccc(C(=O)O)cc2)nc1OC"
property = "AUC"
number = 922

[[record]]
input_smiles = "COc1nn([C@@H](Cc2ccccc2)C(=O)Nc2ccc3[nH]c(C(=O)O)cc3c2)c(=O)cc1-c1cc(Cl)ccc1C(C)=O"
property = "AUC"
number = 599

[[record]]
input_smiles = "CC(=O)c1ccc(Cl)cc1-c1cc(=O)n([C@@H](Cc2ccccc2)C(=O)Nc2ccc(C(=O)O)cc2)nc1OC(F)F"
property = "AUC"
number = 889


Next:
# AUC lookup, item COc1nn([C@@H](Cc2ccccc2)C(=O)Nc2ccc(C(=O)O)cc2)c(=O)cc1-c1cc(Cl)ccc1C(C)=O 1020
